- System: 855422-203-R-J1-PDC complex spheroids, viability
- protocolSummary: Anticancer human tumor 855422-203-R-J1-PDC patient-derived bladder carcinoma cell line growth inhibition [CLK]; active = viability on the fitted dose curve at most 10% of control; inactive = the rest
- statedConditions: second compound 1 µM; first compound 0.0316 µM
Respond only with the outcome that fits, drawn from yes (1) for active, no (0) for inactive

Worked examples follow.
compound: CCCS(=O)(=O)Nc1ccc(F)c(C(=O)c2c[nH]c3ncc(-c4ccc(Cl)cc4)cc23)c1F + CNC(=O)c1ccc(Nc2nc(OC3CCCC3)c3c(-c4ccc5nc(C)oc5c4)c[nH]c3n2)c(OC)c1
classAssignment: no (0)
//
compound: COC1C=CCC(C)C(C)S(=O)(=O)NC(=O)c2ccc3c(c2)N(CC2CCC21)CC1(CCCc2cc(Cl)ccc21)CO3 (stereo not drawn) + CN1CCN(c2cc(C(=O)Nc3cc4cc(-c5cnn(C)c5)ccc4cn3)ccn2)CC1
classAssignment: yes (1)

## Input Which outcome did this test record for the compound CCCS(=O)(=O)Nc1ccc(F)c(C(=O)c2c[nH]c3ncc(-c4ccc(Cl)cc4)cc23)c1F + CN1CCN(c2cc(C(=O)Nc3cc4cc(-c5cnn(C)c5)ccc4cn3)ccn2)CC1 ?
## Output yes (1)

* * *

- Tested on: 855422-203-R-J1-PDC complex spheroids, viability
- protocolSummary: Anticancer human tumor 855422-203-R-J1-PDC cell line growth inhibition [CLK];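 also: spheroids exposed to drugs for seven days before readout; 100% = DMSO vehicle control wells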
- statedConditions: second compound 0.316 µM; first compound 10 µM; active compounds read low
outcomeMeasure: viability, T/C

Guide cases for viability, T/C, answers given:
molecule: CCCS(=O)(=O)Nc1ccc(F)c(C(=O)c2c[nH]c3ncc(-c4ccc(Cl)cc4)cc23)c1F + CN1CCN(c2cc(C(=O)Nc3cc4cc(-c5cnn(C)c5)ccc4cn3)ccn2)CC1
outcomeMeasure: viability, T/C
result: 1.15%

molecule: COc1ccc([C@@H](O)c2cc(-c3ncnc4cc(N5CCOCC5)ccc34)c(F)cc2Cl)nn1 + CNC(=O)c1ccc(Nc2nc(OC3CCCC3)c3c(-c4ccc5nc(C)oc5c4)c[nH]c3n2)c(OC)c1
outcomeMeasure: viability, T/C
result: 12.3%

molecule: COc1ccc([C@@H](O)c2cc(-c3ncnc4cc(N5CCOCC5)ccc34)c(F)cc2Cl)nn1 + CN1CCN(c2cc(C(=O)Nc3cc4cc(-c5cnn(C)c5)ccc4cn3)ccn2)CC1
outcomeMeasure: viability, T/C
result: 5.44%

molecule: CC(=O)O[C@H]1C(=O)[C@@]2(C)[C@H]([C@H](OC(=O)c3ccccc3)[C@]3(O)C[C@H](OC(=O)[C@H](O)[C@@H](NC(=O)c4ccccc4)c4ccccc4)C(C)=C1C3(C)C)[C@]1(OC(C)=O)CO[C@@H]1C[C@@H]2O + CN1CCN(c2cc(C(=O)Nc3cc4cc(-c5cnn(C)c5)ccc4cn3)ccn2)CC1
outcomeMeasure: viability, T/C
result: 5.61%

molecule: C=CC(=O)N1CCN(c2nc(=O)n(-c3c(C)ccnc3C(C)C)c3nc(-c4c(O)cccc4F)c(F)cc23)C(C)C1 (stereo not drawn) + CNC(=O)c1ccc(Nc2nc(OC3CCCC3)c3c(-c4ccc5nc(C)oc5c4)c[nH]c3n2)c(OC)c1
outcomeMeasure: viability, T/C
result: 23.4%

Record viability, T/C per entry; entries follow.
1. C=C(F)C(=O)N1CCN(c2nc(OCC3CCCN3C)nc3c2CCN(c2cccc4cccc(Cl)c24)C3)CC1CC#N (stereo not drawn) + CN1CCN(c2cc(C(=O)Nc3cc4cc(-c5cnn(C)c5)ccc4cn3)ccn2)CC1
2. CC1COCCN1c1cc(C2(S(C)(=N)=O)CC2)nc(-c2ccnc3[nH]ccc23)n1 (stereo not drawn) + CN1CCN(c2cc(C(=O)Nc3cc4cc(-c5cnn(C)c5)ccc4cn3)ccn2)CC1
3. O=c1[nH]cc(F)c(=O)[nH]1 + CNC(=O)c1ccc(Nc2nc(OC3CCCC3)c3c(-c4ccc5nc(C)oc5c4)c[nH]c3n2)c(OC)c1

## Output
1: 0.07%; 2: 3.25%; 3: 18.9%
